MEASURED_TARGET: T1, human TL1A extracellular domain with N-terminal HIS and FLAG tag (human, UniProt O95150 72-251)
T1 construct: the whole entry is named; also called TNFSF15
T1 sequence: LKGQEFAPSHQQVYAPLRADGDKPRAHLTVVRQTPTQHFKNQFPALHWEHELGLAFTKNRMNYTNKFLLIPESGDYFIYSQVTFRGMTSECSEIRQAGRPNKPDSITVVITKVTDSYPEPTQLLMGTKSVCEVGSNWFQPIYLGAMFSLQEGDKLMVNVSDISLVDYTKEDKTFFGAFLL
ASSAY_SUMMARY: SPR Run 7, antibody on Protein A, TL1A 5 ug/mL, timepoint 220

BINDER	TL1A Binding Level (Late) (RU)
320-507 (antibody, human IgG1, name in Kabat numbering, V domains shown, full-length human IgG1, lambda) VH: QVQLVQSGAEVKKPGASVKVSCKASGYTFTSYDINWVRQAPGQGLEWMGWLNQNSGNTGYAQKFQGRVTMTADRSTSTAYMELSSLRSEDTAVYYCAREVPETAAFEYWGQGTLVTVSS VL: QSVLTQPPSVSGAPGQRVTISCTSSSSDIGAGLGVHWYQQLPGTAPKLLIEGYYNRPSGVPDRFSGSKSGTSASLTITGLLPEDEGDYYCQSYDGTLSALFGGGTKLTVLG	24
320-525 (antibody, human IgG1, name in Kabat numbering, V domains shown, full-length human IgG1, lambda) VH: QVQLVQSGAEVKKPGASVKVSCKASGYTFTSYDINWVRQAPGQGLEWMGWLNPNDGNTGYAQKFQGRVTMTADRSTSTAYMELSSLRSEDTAVYYCAREVPETAAFEYWGQGTLVTVSS VL: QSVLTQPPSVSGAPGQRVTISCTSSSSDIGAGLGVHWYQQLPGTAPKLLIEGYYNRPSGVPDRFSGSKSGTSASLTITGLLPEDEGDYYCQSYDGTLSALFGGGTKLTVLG	17
320-516 (antibody, human IgG1, name in Kabat numbering, V domains shown, full-length human IgG1, lambda) VH: QVQLVQSGAEVKKPGASVKVSCKASGYTFTSYDINWVRQAPGQGLEWMGWLNPQSGNTGYAQKFQGRVTMTADRSTSTAYMELSSLRSEDTAVYYCAREVPETAAFEYWGQGTLVTVSS VL: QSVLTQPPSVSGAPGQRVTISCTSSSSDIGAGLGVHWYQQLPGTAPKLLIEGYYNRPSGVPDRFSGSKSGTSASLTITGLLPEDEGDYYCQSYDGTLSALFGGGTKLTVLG	86
320-511 (antibody, human IgG1, name in Kabat numbering, V domains shown, full-length human IgG1, lambda) VH: QVQLVQSGAEVKKPGASVKVSCKASGYTFTSYDINWVRQAPGQGLEWMGWLNLNSGNTGYAQKFQGRVTMTADRSTSTAYMELSSLRSEDTAVYYCAREVPETAAFEYWGQGTLVTVSS VL: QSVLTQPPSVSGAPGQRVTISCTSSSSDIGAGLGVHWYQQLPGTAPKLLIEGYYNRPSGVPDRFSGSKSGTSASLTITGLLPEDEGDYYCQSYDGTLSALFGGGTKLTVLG	98
320-529 (antibody, human IgG1, name in Kabat numbering, V domains shown, full-length human IgG1, lambda) VH: QVQLVQSGAEVKKPGASVKVSCKASGYTFTSYDINWVRQAPGQGLEWMGWLNPNWGNTGYAQKFQGRVTMTADRSTSTAYMELSSLRSEDTAVYYCAREVPETAAFEYWGQGTLVTVSS VL: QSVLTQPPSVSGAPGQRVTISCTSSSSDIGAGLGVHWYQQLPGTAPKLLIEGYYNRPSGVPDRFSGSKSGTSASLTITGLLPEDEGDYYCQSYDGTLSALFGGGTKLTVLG	83
320-545 (antibody, human IgG1, name in Kabat numbering, V domains shown, full-length human IgG1, lambda) VH: QVQLVQSGAEVKKPGASVKVSCKASGYTFTSYDINWVRQAPGQGLEWMGWLNPNSGLTGYAQKFQGRVTMTADRSTSTAYMELSSLRSEDTAVYYCAREVPETAAFEYWGQGTLVTVSS VL: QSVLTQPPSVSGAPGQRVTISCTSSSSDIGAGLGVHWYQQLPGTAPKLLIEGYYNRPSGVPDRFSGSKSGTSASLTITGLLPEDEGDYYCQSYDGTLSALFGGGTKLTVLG	100
320-555 (antibody, human IgG1, name in Kabat numbering, V domains shown, full-length human IgG1, lambda) VH: QVQLVQSGAEVKKPGASVKVSCKASGYTFTSYDINWVRQAPGQGLEWMGWLNPNSGNWGYAQKFQGRVTMTADRSTSTAYMELSSLRSEDTAVYYCAREVPETAAFEYWGQGTLVTVSS VL: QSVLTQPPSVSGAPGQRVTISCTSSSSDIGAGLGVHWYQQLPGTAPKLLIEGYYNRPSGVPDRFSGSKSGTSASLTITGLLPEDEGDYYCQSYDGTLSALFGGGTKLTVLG	30
320-542 (antibody, human IgG1, name in Kabat numbering, V domains shown, full-length human IgG1, lambda) VH: QVQLVQSGAEVKKPGASVKVSCKASGYTFTSYDINWVRQAPGQGLEWMGWLNPNSGDTGYAQKFQGRVTMTADRSTSTAYMELSSLRSEDTAVYYCAREVPETAAFEYWGQGTLVTVSS VL: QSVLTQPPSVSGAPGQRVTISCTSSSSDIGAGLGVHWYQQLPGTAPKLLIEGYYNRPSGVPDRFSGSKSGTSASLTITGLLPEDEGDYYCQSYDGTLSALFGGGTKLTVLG	86
320-502 (antibody, human IgG1, name in Kabat numbering, V domains shown, full-length human IgG1, lambda) VH: QVQLVQSGAEVKKPGASVKVSCKASGYTFTSYDINWVRQAPGQGLEWMGWLKPNSGNTGYAQKFQGRVTMTADRSTSTAYMELSSLRSEDTAVYYCAREVPETAAFEYWGQGTLVTVSS VL: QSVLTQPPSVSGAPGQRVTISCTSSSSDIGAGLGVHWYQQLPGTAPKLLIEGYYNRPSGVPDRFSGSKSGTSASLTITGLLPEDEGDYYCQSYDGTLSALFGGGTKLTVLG	59
320-568 (antibody, human IgG1, name in Kabat numbering, V domains shown, full-length human IgG1, lambda) VH: QVQLVQSGAEVKKPGASVKVSCKASGYTFTSYDINWVRQAPGQGLEWMGWLNPNSGNTGQAQKFQGRVTMTADRSTSTAYMELSSLRSEDTAVYYCAREVPETAAFEYWGQGTLVTVSS VL: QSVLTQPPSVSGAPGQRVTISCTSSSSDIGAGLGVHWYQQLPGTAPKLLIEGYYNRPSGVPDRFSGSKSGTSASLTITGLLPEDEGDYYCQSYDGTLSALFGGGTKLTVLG	107
